Method Notes: HepG2 liver cancer cell viability effects, profiling panel, resazurin fluorescence, 24 h, PK04 Diversity Set (AID 1172); note: test concentration not given here
Conditions: higher = more signal
Classification scheme (z-score): group 1 = under -0.7, group 2 = from -0.7 up to 0.2, group 3 = 0.2 and over

| Compound | Cat |
| --- | --- |
| COc1ccc(C#Cc2ccc3c(c2)[C@]2(C(=O)N3)[C@H](c3ccccc3OCCO)N3[C@H](c4ccccc4)[C@H](c4ccccc4)OC(=O)[C@H]3[C@@H]2C(=O)O)cc1 | group 3 |
| C=C(COC)/C(=C/C[C@H](OC(=O)c1ccncc1)c1ccc(OCCO)cc1)c1cnc2ccccc2c1 | group 3 |
| CCOC(=O)C1=CCC(c2ccc(C)cc2)N(S(=O)(=O)c2ccc(C)cc2)C1 (stereo not given) | group 3 |
| COc1ccc(CCN2C(=O)[C@@]3(c4ccc([N+](=O)[O-])cc4)CC(=O)N(C4CCCCC4)[C@@H]3c3ccc(CO)cc32)cc1 | group 2 |
| C#CCN(CC1=CCCCC1)[C@H](c1ccccc1Br)[C@@H](O)Cc1ccccc1 | group 3 |
| CC(C)[C@@H](CO)NC(=O)[C@H]1[C@@H](c2ccccc2)N(c2ccccc2)O[C@@H]1C | group 3 |
| CC(C)(C)OC(=O)CC[C@]12N=C(c3ccc(OCCCO)cc3)O[C@H]1c1ccccc1N(CCS(=O)(=O)c1ccccc1)C2=O | group 2 |
| COC(=O)[C@@]1(Cc2ccccc2)[C@H]2c3cc(C(=O)N4CCCC4)n(CC4CC4)c3C[C@H]2CN1C(=O)c1ccccc1 | group 1 |
| COC(=O)[C@@]1(Cc2ccc(OC)cc2)[C@H]2c3cc(C(=O)N4CCCC4)n(Cc4ccsc4Br)c3C[C@H]2CN1C(=O)c1ccccc1 | group 1 |
| O=C1OCCC/C=C\[C@H]2OC34C=CCN(CCN5CCOCC5)C(=O)[C@H]3N(CCCO)C(=O)[C@@H]4C12 (stereo not given in full) | group 2 |
| C[N+](C)(C)CCCCNC(=O)[C@H]1C[C@H]2C(=O)N[C@@H](Cc3ccccc3)C(=O)N2[C@H]1c1ccc(O)cc1 | group 1 |
| C=C(CCCC)C(=O)CC[C@H](OC(=O)c1cccnc1)c1ccccc1OCCO | group 3 |
| C=CCC(OC(C)=O)[C@@H]1[C@@H](N(Cc2ccc(-c3cccc(C(F)(F)F)c3)o2)C(=O)Cc2ccc(F)cc2)c2cc(OCCCO)ccc2N1C(=O)Cc1ccc(OC)cc1 (stereo not given in full) | group 3 |
| COc1ccc([Si](C)(C)[C@H]2[C@H](CC(=O)N3Cc4ccccc4C[C@H]3CO)O[C@@]3(C(=O)N(Cc4ccc(N5CCC5=O)cc4)c4ccccc43)[C@@H]2C)cc1 | group 2 |
| O=C1C2C=CC(C(O)c3c(F)cccc3Cl)N(Nc3ccccc3)C2C(=O)N1c1ccccc1 (stereo not given) | group 3 |
| CCOC(=O)C[C@H]1[C@H](OC(=O)c2cc3ccccc3oc2=O)[C@@H](NC(=O)Cc2ccc(OC)cc2)c2cc(OCCCO)ccc2N1C(=O)c1ccccc1 | group 1 |
| CCCC[C@@H]1C[C@H]1[C@@H](NC(=O)c1ccco1)c1ccc(Cl)cc1 | group 2 |
| CCCCc1cn(C[C@H](Cc2ccccc2)NC(=O)N[C@H](CO)CCc2oc(C(C)=O)c(C(=O)OC)c2C(=O)OC)nn1 | group 2 |
| O=C1NCC(=O)N2[C@@H]1C[C@@H](C(=O)O)[C@H]2c1cccc(OCCO)c1 | group 2 |
| O=C1[C@H]2C=C(Br)[C@H](C[C@@H]2c2ccccc2)[C@@]12CO2 | group 2 |
| CN1C(=O)C2C=CC(C(O)Cc3ccccc3)N(Nc3ccccc3)C2C1=O (stereo not given) | group 2 |
| COc1cc2c(cc1O)C=[N+](Cc1cccc(OC(F)(F)F)c1)CC2 | group 1 |
| COc1ccc(C(O)C2C=CC3C(=O)N(c4ccccc4)C(=O)C3N2Nc2ccc(C(C)C)cc2)cc1OCc1ccccc1 (stereo not given) | group 2 |
| COc1cc(OC)c(C(O)C2C=CC3C(=O)NC(=O)C3N2Nc2ccc(Cl)cc2Cl)cc1Br (stereo not given) | group 1 |
| COc1ccc([Si](C)(C)[C@@H]2[C@@H](CC(=O)N3Cc4ccccc4C[C@H]3CO)O[C@]3(C(=O)N(C)c4c(Br)cc(C)cc43)[C@H]2C)cc1 | group 1 |
| O=C1NC(=O)C2C1C=CC(C(O)C(c1ccccc1)c1ccccc1)N2Nc1ccc(Cl)cc1Cl (stereo not given) | group 1 |
| CCOC(=O)C[C@H]1[C@H](OC(=O)Cc2ccc3c(c2)OCO3)[C@@H](NC(=O)c2ccc(-c3ccccc3)cc2)c2cc(OCCCO)ccc2N1C(=O)c1ccc2ccccc2n1 | group 2 |
| CCOC(=O)C[C@H]1[C@H](OC(=O)Cc2ccc3c(c2)OCO3)[C@@H](NC(=O)c2ccc(-c3ccccc3)cc2)c2cc(OCCCO)ccc2N1C(=O)Cc1ccc(OC)cc1 | group 3 |
